Values were extracted from ChEMBL document CHEMBL1141818.

Give measured log10 EC50 for each item. Keep answers brief.
# System: MCF7
# TEST SUMMARY: Cytotoxicity against human MCF7 cells
# Assay type: functional
# RUN PARAMETERS: Homo sapiens, MCF7; read-out: ED50 (the source's name)
Recall that a logarithmic scale is used here: each number is log10 of EC50 in µg/mL.

What measured log10 EC50 goes with CCCCCCCCCCCCCC[C@H]1O[C@@H]([C@H](O)CC[C@H](O)CCCCC[C@@H](O)CC2=C[C@H](C)OC2=O)CC[C@H]1O [PYRAGONICIN] ?
0.20

Now give it for CCCCCCCCCCCC[C@@H](O)[C@@H](O)CC[C@H](O)[C@@H]1CC[C@@H](C[C@@H](O)C[C@@H](O)CCC[C@@H](O)CC2=C[C@H](C)OC2=O)O1 [MURICOREACIN] too.
0.11

Also, CCCCCCCCCC[C@@H](O)[C@H]1CC[C@H]([C@H](O)CCCC[C@H](O)CCCCCCC[C@@H](O)CC2=C[C@H](C)OC2=O)O1 [GLACIN A] please.
-2.36

Let us now turn to CCCCCCCCCCCC[C@@H](O)[C@H]1CC[C@H]([C@H](O)CCCCC[C@@H](O)CCCCCC[C@@H]2CC(CC(C)=O)C(=O)O2)O1 (mixture of isomers)
0.23

Now consider CCCCCCCCCC[C@@H](O)[C@H]1CC[C@H]([C@H]2CC[C@H]([C@H](O)CCCCC[C@@H](O)CCCCC3CC(CC(C)=O)C(=O)O3)O2)O1 (stereo partly specified) .
-2.92

Also, CCCCCCCCCCCC[C@@H](O)[C@H]1CC[C@@H]([C@@H]2CC[C@@H](CCCCCCCCC[C@@H](O)CC3=C[C@H](C)OC3=O)O2)O1 [ROLLIDECIN D] please.
0.70
